# TARGET OF ASSAY: human M1 (Homo sapiens, UniProt P11229)
# Construct: expressed in transfected cells; host or cells: CHO cells
# Sequence (P11229 whole entry): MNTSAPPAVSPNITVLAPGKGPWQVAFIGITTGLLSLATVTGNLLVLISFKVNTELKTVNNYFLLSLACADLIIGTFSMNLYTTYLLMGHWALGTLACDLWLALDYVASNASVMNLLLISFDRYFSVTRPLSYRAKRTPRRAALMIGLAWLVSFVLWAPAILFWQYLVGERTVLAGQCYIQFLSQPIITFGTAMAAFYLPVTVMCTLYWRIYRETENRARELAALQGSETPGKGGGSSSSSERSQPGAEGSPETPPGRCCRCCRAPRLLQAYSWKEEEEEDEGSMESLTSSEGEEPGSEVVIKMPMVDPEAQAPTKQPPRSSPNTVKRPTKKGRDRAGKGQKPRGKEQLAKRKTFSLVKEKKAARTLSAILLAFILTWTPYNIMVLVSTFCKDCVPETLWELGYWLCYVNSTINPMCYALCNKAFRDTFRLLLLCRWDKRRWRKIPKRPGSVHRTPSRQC
# PROTOCOL DESCRIPTION: M1 PAM assay (FLIPR intracellular calcium), human M1
# Type: cell-based
# CONDITION DETAILS: CHO human M1 cells, FLIPR Ca2+, with EC20 of acetylcholine; first value of the cell; read-out: hM1 EC50
pEC50: −log10 of the molar value.
QUANTITY: pEC50

INSERT INTO assay_data (molecule, measurement) VALUES
  ('Cc1cn(-c2ccc(Cn3cc(C(=O)NC4CCOCC4)c4c(F)cccc43)cc2)cn1 [Example 67]', 7.08),
  ('CNC(=O)c1ccc(Cn2cc(C(=O)N[C@H]3CCCC[C@@H]3O)c3c(F)cccc32)cn1 [Example 87]', 7.13),
  ('Cn1cc(-c2ccc(Cn3cc(C(=O)N[C@H]4CCCC(F)(F)[C@@H]4O)c4c(F)cccc43)cc2)cn1 [Example 101]', 7.85),
  ('Cc1ccc(F)c2c(C(=O)NC3CCOCC3)cn(Cc3ccc(-c4cnn(C)c4)cc3F)c12 [Example 133]', 7.32),
  ('Cn1cc(-c2ccc(Cn3cc(C(=O)N[C@H]4CCCC[C@@H]4O)c4c(F)c(F)c(F)c(F)c43)cc2)cn1 [Example 53]', 7.36),
  ('CNC(=O)c1ccc(Cn2cc(C(=O)NC)c3c(F)cccc32)cc1 [Example 110]', 6.85),
  ('Cn1cc(-c2ccc(Cn3nc(C(=O)N[C@H]4CCOC[C@@H]4O)c4c(F)ccc(F)c43)c(F)c2)cn1 [Example 73]', 7.18);
